# EXPERIMENTAL_SYSTEM: human galectin-3C (Gal-3C, C-terminal CRD of galectin-3) (Homo sapiens, UniProt P17931)
# Construct: only the C-terminal domain was used (Gal-3C); 6xHis tag with TEV protease site (N, cleaved yes); made in house; host or cells: BL21 Escherichia coli (pET-15b)
# Sequence (P17931 118-248 limits assumed): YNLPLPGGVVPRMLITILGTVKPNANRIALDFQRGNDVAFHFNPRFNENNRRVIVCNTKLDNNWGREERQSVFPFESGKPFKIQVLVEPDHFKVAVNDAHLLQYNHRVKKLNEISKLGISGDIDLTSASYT
# EXPERIMENT_DESCRIPTION: Competitive fluorescence polarization assay, Gal-3C
# Format: binding
# TEST_CONDITIONS: competitive fluorescence polarization; mean ± SD; read-out: Kd Gal-3C
METRIC: pKd
# pKd: negative log10 of molar concentration; output just the value

COMPOUND	pKd
CCOC(=O)c1ccccc1N(C(C)=O)[C@@H]1O[C@H](CO)[C@@H](O[C@@H]2O[C@H](CO)[C@H](O)[C@H](O)[C@H]2O)[C@H](O)[C@H]1O [Compound 3q]	4.10
CC(=O)N(c1cc(C(=O)O)cc2[nH]ccc12)[C@@H]1O[C@H](CO)[C@@H](O[C@@H]2O[C@H](CO)[C@H](O)[C@H](O)[C@H]2O)[C@H](O)[C@H]1O [Compound 3af]	5.39
CC(=O)N(c1cc(Br)cc(C(=O)O)c1)[C@@H]1O[C@H](CO)[C@@H](O[C@@H]2O[C@H](CO)[C@H](O)[C@H](O)[C@H]2O)[C@H](O)[C@H]1O [Compound 3ac]	4.22

// moving on: another record for pKd
Kindly state the measured pKd obtained for CC(=O)N(c1ccc(Cl)cc1)[C@@H]1O[C@H](CO)[C@@H](O[C@@H]2O[C@H](CO)[C@H](O)[C@H](O)[C@H]2O)[C@H](O)[C@H]1O [Compound 3j] with human galectin-3C (Gal-3C, C-terminal CRD of galectin-3) (Homo sapiens, UniProt P17931).
3.96

* * *

Reported fraction unbound at 4 h, 10 μM by item:
# EXPERIMENT_DESCRIPTION: Plasma protein binding assay (rapid equilibrium dialysis), mouse plasma
# Type: in vitro ADME
# TEST_CONDITIONS: fraction bound, read-out: plasma protein binding Fb mouse (converted)
Form field (numeric): enter value without unit.

MOL_SMILES	METRIC	NUMERIC_READOUT
CC(=O)N(c1cc(C(=O)O)cc2[nH]ccc12)[C@@H]1O[C@H](CO)[C@@H](S[C@@H]2O[C@H](CO)[C@H](O)[C@H](n3cc(-c4cccc(F)c4)nn3)[C@H]2O)[C@H](O)[C@H]1O	fraction unbound at 4 h, 10 μM	0.57
CC(=O)N(c1cc(O)cc(C(=O)O)c1)[C@@H]1O[C@H](CO)[C@@H](O[C@@H]2O[C@H](CO)[C@H](O)[C@H](O)[C@H]2O)[C@H](O)[C@H]1O	fraction unbound at 4 h, 10 μM	0.93

If you can, please state the reported fraction unbound at 4 h, 10 μM value of CC(=O)c1c[nH]c2cc(C(=O)O)cc(N(C(C)=O)[C@@H]3O[C@H](CO)[C@@H](S[C@@H]4O[C@H](CO)[C@H](O)[C@H](n5cc(-c6cccc(F)c6)nn5)[C@H]4O)[C@H](O)[C@H]3O)c12 .
0.78

* * *

# EXPERIMENTAL_SYSTEM: human galectin-3C (Gal-3C, C-terminal CRD of galectin-3) (Homo sapiens)
# Construct: only the C-terminal domain was used (Gal-3C); 6xHis tag with TEV protease site (N, cleaved yes); made in house; host or cells: BL21 Escherichia coli (pET-15b)
# EXPERIMENT_DESCRIPTION: Competitive fluorescence polarization assay, Gal-3C
# Assay type: binding
# TEST_CONDITIONS: CSV supplement, unrounded mean; read-out: Gal3C_IC50_mean_uM
METRIC: IC50 (µM)
The response must be a number in µM with no trailing unit.

Completed entries (count: 3):
> print(dat)
                                 mol.smiles  unit.of.measurement  numeric.readout
1  CC(=O)N(c1cccc(-c2cn(C)nn2)c1)[C@@H]1O[C@H](CO)[C@@H](O[C@@H]2O[C@H](CO)[C@H](O)[C@H](O)[C@H]2O)[C@H](O)[C@H]1O                   µM              191
2  CNC(=O)c1cccc(N(C(C)=O)[C@@H]2O[C@H](CO)[C@@H](O[C@@H]3O[C@H](CO)[C@H](O)[C@H](O)[C@H]3O)[C@H](O)[C@H]2O)c1                   µM              220
3  C#Cc1cccc(N(C(C)=O)[C@@H]2O[C@H](CO)[C@@H](O[C@@H]3O[C@H](CO)[C@H](O)[C@H](O)[C@H]3O)[C@H](O)[C@H]2O)c1                   µM              500

If you can, please state the reported IC50 value of CC(=O)N(c1cccc(-c2nnn[nH]2)c1)[C@@H]1O[C@H](CO)[C@@H](O[C@@H]2O[C@H](CO)[C@H](O)[C@H](O)[C@H]2O)[C@H](O)[C@H]1O .
123
